- tested system: MmCLK1 (Mus musculus, UniProt P22518)
- Construct: host or cells: bacteria
- Sequence (P22518 whole entry): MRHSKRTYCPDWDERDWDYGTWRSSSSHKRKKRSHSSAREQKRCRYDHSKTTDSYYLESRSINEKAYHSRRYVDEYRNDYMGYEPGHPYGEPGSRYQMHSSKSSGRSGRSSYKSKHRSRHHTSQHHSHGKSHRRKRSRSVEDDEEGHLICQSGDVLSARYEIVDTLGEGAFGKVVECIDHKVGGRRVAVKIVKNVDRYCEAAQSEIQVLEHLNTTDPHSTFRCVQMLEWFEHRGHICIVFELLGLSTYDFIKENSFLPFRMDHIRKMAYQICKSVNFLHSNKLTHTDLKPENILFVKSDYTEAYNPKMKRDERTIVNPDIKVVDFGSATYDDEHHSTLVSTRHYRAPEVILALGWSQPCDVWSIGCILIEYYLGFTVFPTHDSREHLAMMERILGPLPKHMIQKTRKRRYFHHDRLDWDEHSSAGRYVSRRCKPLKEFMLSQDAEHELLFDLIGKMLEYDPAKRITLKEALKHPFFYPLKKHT
- assay notes: ADP-Glo kinase inhibition assay, CLK1
- Type: biochemical
- experimental conditions: 10 μM ATP, duplicate; read-out: CLK1 IC50
- Experimental: Kinase enzymatic activities were assayed in 384 well plates using the ADP-GloTM assay kit (Promega, Madison, WI, USA) according to the manufacturer’s guidance. […] The transmitted signal was measured using the Envision (Perkin Elmer, Waltham, MA, USA) microplate luminometer and expressed in relative light unit (RLU). […] Kinase activities are expressed in the percentage of maximal activity, i.e., measured in the absence of an inhibitor. […]
quantity name: IC50 (nM)

compound=CCCc1c2cnccc2c([N+](=O)[O-])c2c1cnn2CC quantity_name=IC50 data_value=363
compound=Cn1ncc2cc3cnccc3c([N+](=O)[O-])c21 quantity_name=IC50 data_value=71
compound=CCn1ncc2cc3cnccc3c(N)c21 quantity_name=IC50 data_value=564
compound=CCn1ncc2c(C)c3cnccc3c([N+](=O)[O-])c21 quantity_name=IC50 data_value=101
compound="Nc1c2ccncc2cc2cn[nH]c12 [Compound 2a, 1-H-pyrazolo[3,4-g]isoquinolin-9-amine]" quantity_name=IC50 data_value=296
